tested on: S. aureus (ATCC 29213); assay: Zone of inhibition screen, 96 well agar array format; assay type: cell-based; set-up: scale not given here; settings: zone of inhibition relative to 1 mg/ml p-chlorobiphenylvancomycin
Some compounds, each annotated with its measured zone score, S. aureus ATCC 29213.
Enter a number only.

In the examples that follow, each entry is paired with its recorded zone score, S. aureus ATCC 29213.
CC1OC(OC2C(Oc3c4cc5cc3Oc3ccc(cc3Cl)C(O)C3NC(=O)C(NC(=O)C5NC(=O)C(CC(N)=O)NC(=O)C(NC(=O)c5cccc(SC(F)(F)F)c5)C(O)c5ccc(c(Cl)c5)O4)c4ccc(O)c(c4)-c4c(O)cc(O)cc4C(C(=O)O)NC3=O)OC(CO)C(O)C2O)CC(C)(NCc2ccc(-c3ccc(Cl)cc3)cc2)C1O (stereo not drawn): 2
CC1OC(OC2C(Oc3c4cc5cc3Oc3ccc(cc3Cl)C(O)C3NC(=O)C(NC(=O)C5NC(=O)C(CC(N)=O)NC(=O)C(NC(=O)Cc5ccc(Cl)cc5Cl)C(O)c5ccc(c(Cl)c5)O4)c4ccc(O)c(c4)-c4c(O)cc(O)cc4C(C(=O)O)NC3=O)OC(CO)C(O)C2O)CC(C)(NCc2ccc(-c3ccc(Cl)cc3)cc2)C1O (stereo not drawn): 2

Please report the recorded zone score, S. aureus ATCC 29213 for CC1OC(OC2C(Oc3c4cc5cc3Oc3ccc(cc3Cl)C(O)C3NC(=O)C(NC(=O)C5NC(=O)C(CC(N)=O)NC(=O)C(NC(=O)c5cccn5C)C(O)c5ccc(c(Cl)c5)O4)c4ccc(O)c(c4)-c4c(O)cc(O)cc4C(C(=O)O)NC3=O)OC(CO)C(O)C2O)CC(C)(NCc2ccc(-c3ccc(Cl)cc3)cc2)C1O (stereo not drawn) .
2

====

tested on: E. Faecalis CL 4877; assay: MIC determination in BHI media, OD600; format: cell-based; conditions: BHI + 0.1% casamino acids, 18 hours at 37° C., ≧90% OD600 inhibition
Some compounds, each annotated with its measured MIC E. faecalis CL 4877.
The figure you give is taken to be in µg/mL; do not add the unit.

CC1OC(OC2C(Oc3c4cc5cc3Oc3ccc(cc3Cl)C(O)C3NC(=O)C(NC(=O)C5NC(=O)C(CC(N)=O)NC(=O)C(NC(=O)C(N)Cc5c[nH]cn5)C(O)c5ccc(c(Cl)c5)O4)c4ccc(O)c(c4)-c4c(O)cc(O)cc4C(C(=O)O)NC3=O)OC(CO)C(O)C2O)CC(C)(NCc2ccc(-c3ccc(Cl)cc3)cc2)C1O (centres unmarked): 25

Please report the recorded MIC E. faecalis CL 4877 for CC1OC(OC2C(Oc3c4cc5cc3Oc3ccc(cc3Cl)C(O)C3NC(=O)C(NC(=O)C5NC(=O)C(CC(N)=O)NC(=O)C(NC(=O)C(N)CSC(C)(C)C)C(O)c5ccc(c(Cl)c5)O4)c4ccc(O)c(c4)-c4c(O)cc(O)cc4C(C(=O)O)NC3=O)OC(CO)C(O)C2O)CC(C)(NCc2ccc(-c3ccc(Cl)cc3)cc2)C1O (centres unmarked) .
25

====

test system: E. faecalis (CL 4877); assay: Zone of inhibition screen, 96 well agar array format; assay type: cell-based; set-up: scale not given here; conditions: zone of inhibition relative to 1 mg/ml stock solution of p-chlorobiphenylvancomycin
Some molecules, each annotated with its measured zone score, E. faecalis CL 4877.
Enter a number only.

CC1OC(OC2C(Oc3c4cc5cc3Oc3ccc(cc3Cl)C(O)C3NC(=O)C(NC(=O)C5NC(=O)C(CC(N)=O)NC(=O)C(NC(=O)C(O)CN)C(O)c5ccc(c(Cl)c5)O4)c4ccc(O)c(c4)-c4c(O)cc(O)cc4C(C(=O)O)NC3=O)OC(CO)C(O)C2O)CC(C)(NCc2ccc(-c3ccc(Cl)cc3)cc2)C1O (mixture of isomers): 2

With those in mind, consider the next molecule.
Please report the recorded zone score, E. faecalis CL 4877 for CSCCC(N)C(=O)NC1C(=O)NC(CC(N)=O)C(=O)NC2C(=O)NC3C(=O)NC(C(=O)NC(C(=O)O)c4cc(O)cc(O)c4-c4cc3ccc4O)C(O)c3ccc(c(Cl)c3)Oc3cc2cc(c3OC2OC(CO)C(O)C(O)C2OC2CC(C)(NCc3ccc(-c4ccc(Cl)cc4)cc3)C(O)C(C)O2)Oc2ccc(cc2Cl)C1O (centres unmarked) .
2

====

test system: S. epidermidis (ATCC 12228); test: Zone of inhibition screen, 96 well agar array format; assay type: cell-based; parameters: scale not given here; settings: zone of inhibition relative to 1 mg/ml p-chlorobiphenylvancomycin
Some molecules, each annotated with its measured zone score, S. epidermidis ATCC 12228.
Enter a number only.

In the examples that follow, each entry is paired with its recorded zone score, S. epidermidis ATCC 12228.
CC1OC(OC2C(Oc3c4cc5cc3Oc3ccc(cc3Cl)C(O)C3NC(=O)C(NC(=O)C5NC(=O)C(CC(N)=O)NC(=O)C(NC(=O)Cc5ccsc5)C(O)c5ccc(c(Cl)c5)O4)c4ccc(O)c(c4)-c4c(O)cc(O)cc4C(C(=O)O)NC3=O)OC(CO)C(O)C2O)CC(C)(NCc2ccc(-c3ccc(Cl)cc3)cc2)C1O (stereo not drawn): 2
CC1OC(OC2C(Oc3c4cc5cc3Oc3ccc(cc3Cl)C(O)C3NC(=O)C(NC(=O)C5NC(=O)C(CC(N)=O)NC(=O)C(NC(=O)c5ccc(N)cc5O)C(O)c5ccc(c(Cl)c5)O4)c4ccc(O)c(c4)-c4c(O)cc(O)cc4C(C(=O)O)NC3=O)OC(CO)C(O)C2O)CC(C)(NCc2ccc(-c3ccc(Cl)cc3)cc2)C1O (stereo not drawn): 2

With those in mind, consider the next molecule.
Please report the recorded zone score, S. epidermidis ATCC 12228 for CC1OC(OC2C(Oc3c4cc5cc3Oc3ccc(cc3Cl)C(O)C3NC(=O)C(NC(=O)C5NC(=O)C(CC(N)=O)NC(=O)C(NC(=O)c5ccc(O)cc5)C(O)c5ccc(c(Cl)c5)O4)c4ccc(O)c(c4)-c4c(O)cc(O)cc4C(C(=O)O)NC3=O)OC(CO)C(O)C2O)CC(C)(NCc2ccc(-c3ccc(Cl)cc3)cc2)C1O (stereo not drawn) .
2

====

Some compounds, each annotated with its measured zone score, S. aureus ATCC 29213.
tested on: S. aureus (ATCC 29213); experiment: Zone of inhibition screen, 96 well agar array format; format: cell-based; parameters: scale not given here; conditions: zone of inhibition relative to 1 mg/ml p-chlorobiphenylvancomycin
Enter a number only.

CC(O)CC(=O)N[C@H]1C(=O)N[C@@H](CC(N)=O)C(=O)N[C@H]2C(=O)N[C@H]3C(=O)N[C@H](C(=O)N[C@@H](C(=O)O)c4cc(O)cc(O)c4-c4cc3ccc4O)[C@H](O)c3ccc(c(Cl)c3)Oc3cc2cc(c3O[C@@H]2O[C@H](CO)[C@@H](O)[C@H](O)[C@H]2O[C@@H]2C[C@@](C)(NCc3ccc(-c4ccc(Cl)cc4)cc3)[C@@H](O)[C@@H](C)O2)Oc2ccc(cc2Cl)[C@H]1O (stereo partly drawn): 2
CC1OC(OC2C(Oc3c4cc5cc3Oc3ccc(cc3Cl)C(O)C3NC(=O)C(NC(=O)C5NC(=O)C(CC(N)=O)NC(=O)C(NC(=O)COc5cc(Cl)c(Cl)cc5Cl)C(O)c5ccc(c(Cl)c5)O4)c4ccc(O)c(c4)-c4c(O)cc(O)cc4C(C(=O)O)NC3=O)OC(CO)C(O)C2O)CC(C)(NCc2ccc(-c3ccc(Cl)cc3)cc2)C1O (stereo not drawn): 2

With those in mind, consider the next compound.
Please report the recorded zone score, S. aureus ATCC 29213 for Cc1cnc(C(=O)NC2C(=O)NC(CC(N)=O)C(=O)NC3C(=O)NC4C(=O)NC(C(=O)NC(C(=O)O)c5cc(O)cc(O)c5-c5cc4ccc5O)C(O)c4ccc(c(Cl)c4)Oc4cc3cc(c4OC3OC(CO)C(O)C(O)C3OC3CC(C)(NCc4ccc(-c5ccc(Cl)cc5)cc4)C(O)C(C)O3)Oc3ccc(cc3Cl)C2O)cn1 (stereo not drawn) .
2

====

tested on: S. aureus (ATCC 29213); experiment: Zone of inhibition screen, 96 well agar array format; type: cell-based; design: scale not given here; conditions: zone of inhibition relative to 1 mg/ml p-chlorobiphenylvancomycin
Some compounds, each annotated with its measured zone score, S. aureus ATCC 29213.
Enter a number only.

In the examples that follow, each entry is paired with its recorded zone score, S. aureus ATCC 29213.
CC1OC(OC2C(Oc3c4cc5cc3Oc3ccc(cc3Cl)C(O)C(NC(=O)C(C)(CO)CO)C(=O)NC(CC(N)=O)C(=O)NC5C(=O)NC3C(=O)NC(C(=O)NC(C(=O)O)c5cc(O)cc(O)c5-c5cc3ccc5O)C(O)c3ccc(c(Cl)c3)O4)OC(CO)C(O)C2O)CC(C)(NCc2ccc(-c3ccc(Cl)cc3)cc2)C1O (stereo not drawn): 2
CC1OC(OC2C(Oc3c4cc5cc3Oc3ccc(cc3Cl)C(O)C3NC(=O)C(NC(=O)C5NC(=O)C(CC(N)=O)NC(=O)C(NC(=O)CNC(=O)CNC(=O)CNC(=O)CNC(=O)OCc5ccccc5)C(O)c5ccc(c(Cl)c5)O4)c4ccc(O)c(c4)-c4c(O)cc(O)cc4C(C(=O)O)NC3=O)OC(CO)C(O)C2O)CC(C)(NCc2ccc(-c3ccc(Cl)cc3)cc2)C1O (stereo not drawn): 2
CC1OC(OC2C(Oc3c4cc5cc3Oc3ccc(cc3Cl)C(O)C3NC(=O)C(NC(=O)C5NC(=O)C(CC(N)=O)NC(=O)C(NC(=O)CNC(=O)CNC(=O)CCNC(=O)OCc5ccccc5)C(O)c5ccc(c(Cl)c5)O4)c4ccc(O)c(c4)-c4c(O)cc(O)cc4C(C(=O)O)NC3=O)OC(CO)C(O)C2O)CC(C)(NCc2ccc(-c3ccc(Cl)cc3)cc2)C1O (stereo not drawn): 2
CC1OC(OC2C(Oc3c4cc5cc3Oc3ccc(cc3Cl)C(O)C3NC(=O)C(NC(=O)C5NC(=O)C(CC(N)=O)NC(=O)C(NC(=O)c5cc(O)cc(O)c5)C(O)c5ccc(c(Cl)c5)O4)c4ccc(O)c(c4)-c4c(O)cc(O)cc4C(C(=O)O)NC3=O)OC(CO)C(O)C2O)CC(C)(NCc2ccc(-c3ccc(Cl)cc3)cc2)C1O (stereo not drawn): 2
COc1ccc(CCC(=O)NC2C(=O)NC(CC(N)=O)C(=O)NC3C(=O)NC4C(=O)NC(C(=O)NC(C(=O)O)c5cc(O)cc(O)c5-c5cc4ccc5O)C(O)c4ccc(c(Cl)c4)Oc4cc3cc(c4OC3OC(CO)C(O)C(O)C3OC3CC(C)(NCc4ccc(-c5ccc(Cl)cc5)cc4)C(O)C(C)O3)Oc3ccc(cc3Cl)C2O)cc1OC (stereo not drawn): 2

Please report the recorded zone score, S. aureus ATCC 29213 for CC1OC(OC2C(Oc3c4cc5cc3Oc3ccc(cc3Cl)C(O)C3NC(=O)C(NC(=O)C5NC(=O)C(CC(N)=O)NC(=O)C(NC(=O)c5cccnc5Sc5ccc(Cl)cc5)C(O)c5ccc(c(Cl)c5)O4)c4ccc(O)c(c4)-c4c(O)cc(O)cc4C(C(=O)O)NC3=O)OC(CO)C(O)C2O)CC(C)(NCc2ccc(-c3ccc(Cl)cc3)cc2)C1O (stereo not drawn) .
2
